melting point values for the molecules below.

Reference set, count: 5
structureSmiles: COc1ccc(C2=NN(c3ccc(C(=O)N4CCOCC4)cc3)C(=O)C(C)(C)C2)cc1OC
melting point: 165 to 166 °C

structureSmiles: COc1ccc(C2=NN(c3ccc(O)cc3)C(=O)C(C)(C)C2)cc1OC
melting point: 176 to 178 °C

structureSmiles: COc1ccc(C2=NN(c3ccc(OCC(=O)N4CCN(C)CC4)cc3)C(=O)C(C)(C)C2)cc1OC.Cl
melting point: 198 to 202 °C

structureSmiles: COc1ccc(C2=NN(c3cccc(C(=O)O)c3)C(=O)C(C)(C)C2)cc1OC
melting point: 165 to 167 °C

structureSmiles: COc1ccc(C2=NN(c3cccc(C(=O)N4CCOCC4)c3)C(=O)C(C)(C)C2)cc1OC
melting point: 108 to 109 °C

// returns reported melting point for input COc1ccc(C2=NN(c3ccc(C(=O)O)cc3)C(=O)C(C)(C)C2)cc1OC
196 to 198 °C

Param item: COc1ccc(C2=NN(c3ccc(CC(=O)N4CCOCC4)cc3)C(=O)C(C)(C)C2)cc1OC
165 to 167 °C

Input COc1ccc(C2=NN(c3ccc(N4CCOCC4)cc3)C(=O)C(C)(C)C2)cc1OC
178 to 179 °C

Please answer likewise for COc1ccc(C2=NN(c3ccc(C(=O)N4CCN(CCN5CCOCC5)CC4)cc3)C(=O)C(C)(C)C2)cc1OC.Cl.Cl
249 °C (dec.)

COc1ccc(C2=NN(c3ccc(C(=O)N4CCN(c5ccncc5)CC4)cc3)C(=O)C(C)(C)C2)cc1OC.Cl.Cl , same question.
223 to 225 °C

Repeat for the following molecule: COc1ccc(C2=NN(c3ccc(OCC(N)=O)cc3)C(=O)C(C)(C)C2)cc1OC
184 to 187 °C

Data credit: patent US20080227790A1
